target: Acyl-homoserine lactone acylase PvdQ (Pseudomonas aeruginosa (strain ATCC 15692 / DSM 22644 / CIP 104116 / JCM 14847 / LMG 12228 / 1C / PRS 101 / PAO1)) (UniProt Q9I194); assay: PvdQ acylase enzyme activity blockers – biochemical, fluorescence, plate reader and imaging, cherry-picks, dose response (AID 493231); details: purified PvdQ acylase, fluorogenic substrate; series mostly up to 10 µM;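 note: more negative values mean stronger inhibition of the acylase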
Sequence (Q9I194 whole entry, looked up): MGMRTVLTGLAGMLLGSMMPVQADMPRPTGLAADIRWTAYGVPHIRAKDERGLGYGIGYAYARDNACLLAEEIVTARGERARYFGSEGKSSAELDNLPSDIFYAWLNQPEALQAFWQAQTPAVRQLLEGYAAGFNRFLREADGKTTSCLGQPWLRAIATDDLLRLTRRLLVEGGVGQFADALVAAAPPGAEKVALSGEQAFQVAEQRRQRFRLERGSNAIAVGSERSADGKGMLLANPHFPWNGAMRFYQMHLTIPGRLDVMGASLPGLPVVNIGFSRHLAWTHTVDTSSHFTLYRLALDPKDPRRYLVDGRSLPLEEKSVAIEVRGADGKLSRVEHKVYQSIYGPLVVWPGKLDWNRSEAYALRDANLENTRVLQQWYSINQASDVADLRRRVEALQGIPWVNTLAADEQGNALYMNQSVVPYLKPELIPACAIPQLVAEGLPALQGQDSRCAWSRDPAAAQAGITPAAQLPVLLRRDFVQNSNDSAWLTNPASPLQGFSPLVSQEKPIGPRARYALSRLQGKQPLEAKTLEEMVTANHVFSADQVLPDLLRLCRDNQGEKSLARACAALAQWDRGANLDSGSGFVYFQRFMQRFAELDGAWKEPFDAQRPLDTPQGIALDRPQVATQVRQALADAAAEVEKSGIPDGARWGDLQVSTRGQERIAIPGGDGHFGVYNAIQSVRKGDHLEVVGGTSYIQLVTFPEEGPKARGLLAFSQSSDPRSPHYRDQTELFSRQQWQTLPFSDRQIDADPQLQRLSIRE
Measured potencies and affinities stand elsewhere. Active and inactive are the calls of the source. The rule behind the calls is not given here.
assay-metric: outcome

Example entries and their recorded answers appear below.
Cc1nc2ccc(S(=O)(=O)Nc3ccc(-c4nc5cccnc5s4)cc3)cc2s1	inactive
CC(=O)Nc1nc(-c2ccc(Cl)cc2)ns1	inactive
C(=C\c1nnc(-c2cccs2)o1)/c1ccccc1	inactive
O=C1CC(c2ccccc2)Cc2nc(NC3CC3)ncc21 (configuration not stated)	inactive
CC(C)CCN(CCC(C)C)C(CO)(CO)CO	inactive

Ask: Provide outcome value for the following compound: CCOc1ccc(NC(=S)NCc2cccnc2)cc1
Reply: inactive

Ask: Provide outcome value for the following compound: NS(=O)(=O)c1ccc(N2CCOCC2)c(C(=O)NCc2cccs2)c1
Reply: inactive

Ask: Tell us which outcome value is on record for COc1ccccc1N(CC(O)Cn1ccnc1C)S(=O)(=O)c1ccccc1 (configuration not stated)
Reply: inactive

Ask: Given the compound Cc1cccc(Nc2nnc(SCC(=O)c3c(N)n(C4CC4)c(=O)[nH]c3=O)s2)c1 , write its reported outcome.
Reply: inactive

Ask: For the compound COc1ccc2cc(C)c3nnc(SCC(=O)Nc4cc(OC)c(OC)cc4C(=O)O)n3c2c1 , give its reported outcome.
Reply: inactive

Ask: Look up and report measured outcome for this entry: CCN(c1ccccc1)S(=O)(=O)c1cc(C(=O)Nc2ccccc2Cl)ccc1F
Reply: inactive

Ask: Give outcome for Cn1c(=O)c2[nH]c(-c3ccccc3)c(O)c2n(C)c1=O
Reply: inactive

Ask: Return the recorded outcome value; entry: Cc1ccccc1NC(=O)Cn1nc(-c2ccccc2)nc1-c1ccccc1
Reply: inactive

Ask: Tell us which outcome value is on record for CC(C)(C)OC(=O)N(CCc1ccccc1)Cc1ccccc1OCc1cccc(NC(=O)C2CC2)c1
Reply: inactive

Ask: Quickly give me recorded outcome for CC(=O)c1ccc2c3c(cc(C)c2c1)CCCC3
Reply: inactive

* * *

target: Acyl-homoserine lactone acylase PvdQ (Pseudomonas aeruginosa (strain ATCC 15692 / DSM 22644 / CIP 104116 / JCM 14847 / LMG 12228 / 1C / PRS 101 / PAO1)) (UniProt Q9I194); assay: PvdQ acylase enzyme activity blockers – biochemical, fluorescence, plate reader and imaging, cherry-picks, dose response (AID 493231); conditions: purified PvdQ acylase, fluorogenic substrate; series mostly up to 10 µM;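 note: more negative values mean stronger inhibition of the acylase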
Entries with a potency or affinity are not part of this list. Active and inactive are the calls of the source. The rule behind the calls is not given here.
assay-metric: outcome

Reference set (5 entries):
C=CCC1S/C(=N/N=C/c2cccs2)NC1=O (configuration not stated)	inactive
COc1ccc(OCCCC(=O)Nc2cccc(SC)c2)cc1	inactive
CC(=O)c1ccc(NC(=S)N2CCCC(CO)C2)cc1 (configuration not stated)	inactive
Cc1nn(S(=O)(=O)c2ccccc2)c(C)c1S(=O)(=O)N1CCOCC1	inactive
COC(=O)C1CCN(C2CC(=O)N(c3cc(C)cc(C)c3)C2=O)CC1 (configuration not stated)	inactive

Ask: Check the records and state outcome for O=C1OC(Nc2ccc3c(c2)OCO3)c2ccccc21 (configuration not stated)
Reply: inactive

Ask: Find the measured outcome of O=c1oc(-c2ccc(F)cc2)nc2ccsc12 and report it.
Reply: inactive

Ask: Indicate its recorded outcome; the compound in question is CS(=O)(=O)N1CCN(C(=O)Nc2ccccc2)CC1
Reply: inactive

Ask: Identify outcome associated with the compound Cc1cc(C)cc(N2C(=O)CC(Sc3ccccc3C(=O)O)C2=O)c1 (configuration not stated)
Reply: inactive

Ask: Please give measured outcome of the following entry: O=C(OCc1nc2ccccc2s1)c1ccc([N+](=O)[O-])o1
Reply: inactive

Ask: Return reported outcome. Input compound: COc1cccc(CN(C)CC(=O)NNC(=O)c2ccc(Cl)cc2)c1
Reply: inactive

Ask: Name the recorded outcome of the item COc1ccc(-c2cc3ccccc3cn2)cc1 in your answer.
Reply: inactive
